meta.source: patent US9102648B1

Task for the reader: assign each of the following compounds its reported pEC50.
biological target: Bombyx mori EcR (VP16 fusion, CVBE switch construct) (Bombyx mori, UniProt P49881); experiment: Z3 Assay (HEK-293 cells with CVBE and 6XEcRE LacZ, β-galactosidase reporter); details: read-out: Z3 assay EC50; HEK-293 Z3 cells, β-galactosidase reporter; average of two wells
Sequence (P49881 86-606): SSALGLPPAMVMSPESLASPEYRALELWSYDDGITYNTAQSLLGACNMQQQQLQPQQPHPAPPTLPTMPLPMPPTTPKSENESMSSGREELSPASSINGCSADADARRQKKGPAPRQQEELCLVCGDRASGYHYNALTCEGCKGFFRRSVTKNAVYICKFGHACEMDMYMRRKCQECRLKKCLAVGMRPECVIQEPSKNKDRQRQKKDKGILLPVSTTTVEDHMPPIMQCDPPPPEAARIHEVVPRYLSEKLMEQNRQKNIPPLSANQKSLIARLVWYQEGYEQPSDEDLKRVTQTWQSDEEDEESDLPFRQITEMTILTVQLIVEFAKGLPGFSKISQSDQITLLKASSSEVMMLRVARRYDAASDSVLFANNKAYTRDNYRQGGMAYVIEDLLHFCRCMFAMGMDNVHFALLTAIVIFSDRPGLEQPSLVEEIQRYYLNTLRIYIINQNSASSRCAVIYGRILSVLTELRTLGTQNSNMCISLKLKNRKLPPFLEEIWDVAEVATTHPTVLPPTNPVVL
Sequence (P19793 whole entry partner, the tested form may be a part): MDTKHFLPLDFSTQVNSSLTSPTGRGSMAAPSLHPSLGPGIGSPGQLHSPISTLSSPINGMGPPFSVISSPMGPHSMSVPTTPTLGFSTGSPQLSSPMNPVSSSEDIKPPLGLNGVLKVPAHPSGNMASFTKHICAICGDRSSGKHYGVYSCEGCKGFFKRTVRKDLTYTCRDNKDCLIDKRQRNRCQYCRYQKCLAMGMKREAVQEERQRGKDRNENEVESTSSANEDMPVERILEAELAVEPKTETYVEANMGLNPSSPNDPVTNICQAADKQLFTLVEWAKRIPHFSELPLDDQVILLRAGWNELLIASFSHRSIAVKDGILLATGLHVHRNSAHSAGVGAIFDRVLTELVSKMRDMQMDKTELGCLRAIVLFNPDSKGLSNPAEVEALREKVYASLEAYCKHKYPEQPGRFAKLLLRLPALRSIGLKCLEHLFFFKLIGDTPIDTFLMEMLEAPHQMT
Numbers only, as −log10 of the molar value.

CC(C)(C)N(NC(=O)c1ccc(Br)cc1)C(=O)c1cc(Cl)cc(Cl)c1
6.48
CC(C)(C)N(NC(=O)c1ccc2c(c1)OCO2)C(=O)c1ccc(F)cc1Cl
4.72
Cc1ccc([N+](=O)[O-])c(C(=O)N(NC(=O)c2ccc3c(c2C)CCCO3)C(C)(C)C)c1
6.90
COc1cc(C(=O)N(NC(=O)c2cccc(OC)c2C)C(C)(C)C)ccc1C
6.67

Now for another entry.
Sample "CCc1c(C(=O)NN(C(=O)c2cccc(OC)c2)C(C)(C)C)ccc2c1OCCO2" — what was its pEC50?
6.59
